target: T1, human SIRPα v6-Fc (SIRPα6 extracellular domain fused to human IGHG1_Fc) (human, UniProt P78324 31-373; P0DOX5 223-449 = IgG part); experiment: BLI Octet, antigen-Fc on biosensor;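 also: antigen captured on the biosensor tip and then immersed in solutions of the test antibodies, which act as the analyte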
T1 construct: as m38; also called V6 (e.g. SIRPα6)
Reported Endpoint: koff (s⁻¹)

Binder: SIRPAB-7 (antibody, human IgG1, kappa, V domains shown) VH: QVQLQESGPGLVKPSQTLSLTCTVSGGSISSGEYYWEWIRQHPGKGLEWIGYIYSSGFTYYNPSLKSRVTISVDTSKNQFSLKLSSVTAADTAVYYCAREGLDGSYGSSAWGQGTLVTVSS VL: DIQLTQSPSSLSASVGDRVTITCQASQDISNYLNWYQQKPGKAPKLLIYDASNLETGVPSRFSGSGSGTDFTFTISSLQPEDIATYYCQQFAYLPYTFGGGTKVEIKR
Reported Endpoint: koff
Endpoint Result: 0.0111
--
Binder: SIRPAB-10 (antibody, human IgG1, kappa, V domains shown) VH: QVQLVQSGAEVKKPGASVKVSCKASGYTFTGYPISWVRQAPGQGLEWMGWIYAYGGNTNYAQKLQGRVTMTTDTSTSTAYMELRSLRSDDTAVYYCAREAGSSWYDFDLWGRGTLVTVSS VL: DIQMTQSPSSVSASVGDRVTITCRASQGISSWLAWYQQKPGKAPKLLIYAASNLQSGVPSRFSGSGSGTDFTLTISSLQPEDFATYYCQQGASFPITFGGGTKVEIKR
Reported Endpoint: koff
Endpoint Result: 0.000491
--
Binder: SIRPAB-13 (antibody, human IgG1, kappa, V domains shown) VH: QVQLVQSGAEVKKPGASVKVSCKASGYTFHGYGISWVRQAPGQGLEWMGWISAYSGETNYAQKLQGRVTMTTDTSTSTAYMELRSLRSDDTAVYYCAREAGSSWYDFDLWGRGTLVTVSS VL: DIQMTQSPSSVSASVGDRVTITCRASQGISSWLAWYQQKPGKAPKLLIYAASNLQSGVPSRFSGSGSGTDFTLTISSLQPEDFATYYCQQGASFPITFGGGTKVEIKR
Reported Endpoint: koff
Endpoint Result: 0.00364
--
Binder: SIRPAB-9 (antibody, human IgG1, kappa, V domains shown) VH: QVQLVQSGAEVKKPGASVKVSCKASGYTFGGYGISWVRQAPGQGLEWMGWISAYGGETNYAQKLQGRVTMTTDTSTSTAYMELRSLRSDDTAVYYCAREAGSSWYDFDLWGRGTLVTVSS VL: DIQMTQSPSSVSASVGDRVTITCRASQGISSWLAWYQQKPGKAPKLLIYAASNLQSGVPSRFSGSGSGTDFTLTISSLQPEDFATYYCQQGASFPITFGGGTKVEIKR
Reported Endpoint: koff
Endpoint Result: 0.00182
